Sourced from ChEMBL document CHEMBL1127214

System: T-cell
Assay: Concentration required to reverse inhibition of T-cell proliferation, by measuring [3H]thymidine uptake up to a concentration of 10 uM (Antagonistic activity, immunosuppression)
Format: functional, cell-based
Settings: Mus musculus
pEC50: −log10 of the molar value.
# cutoff 7 applies to pEC50; >= gives yes (1), < gives no (0)

1. CCC/C=C\C[C@@H]1/C=C(\C)C[C@H](C)C[C@H](OC)[C@H]2O[C@@](O)(C(=O)C(=O)N3CCCC[C@H]3C(=O)O[C@H](/C(C)=C/[C@@H]3CC[C@@H](O)[C@H](OC)C3)[C@H](C)[C@@H](O)CC1=O)[C@H](C)C[C@@H]2OC | no (0)
2. COC(=O)/C=C/C[C@@H]1/C=C(\C)C[C@H](C)C[C@H](OC)[C@H]2O[C@@](O)(C(=O)C(=O)N3CCCC[C@H]3C(=O)O[C@H](/C(C)=C/[C@@H]3CC[C@@H](O)[C@H](OC)C3)[C@H](C)[C@@H](O)CC1=O)[C@H](C)C[C@@H]2OC | yes (1)
3. CCOC(=O)/C(C)=C/C[C@@H]1/C=C(\C)C[C@H](C)C[C@H](OC)[C@H]2O[C@@](O)(C(=O)C(=O)N3CCCC[C@H]3C(=O)O[C@H](/C(C)=C/[C@@H]3CC[C@@H](O)[C@H](OC)C3)[C@H](C)[C@@H](O)CC1=O)[C@H](C)C[C@@H]2OC | no (0)
4. CCCCC[C@@H]1/C=C(\C)C[C@H](C)C[C@H](OC)[C@H]2O[C@@](O)(C(=O)C(=O)N3CCCC[C@H]3C(=O)O[C@H](/C(C)=C/[C@@H]3CC[C@@H](O)[C@H](OC)C3)[C@H](C)[C@@H](O)CC1=O)[C@H](C)C[C@@H]2OC | no (0)
5. CO[C@H]1C[C@@H](C)C/C(C)=C/[C@@H](C/C=C/C(C)=O)C(=O)C[C@H](O)[C@@H](C)[C@@H](/C(C)=C/[C@@H]2CC[C@@H](O)[C@H](OC)C2)OC(=O)[C@@H]2CCCCN2C(=O)C(=O)[C@]2(O)O[C@H]1[C@@H](OC)C[C@H]2C | yes (1)
6. CC/C=C\C[C@@H]1/C=C(\C)C[C@H](C)C[C@H](OC)[C@H]2O[C@@](O)(C(=O)C(=O)N3CCCC[C@H]3C(=O)O[C@H](/C(C)=C/[C@@H]3CC[C@@H](O)[C@H](OC)C3)[C@H](C)[C@@H](O)CC1=O)[C@H](C)C[C@@H]2OC | no (0)
7. CO[C@H]1C[C@@H](C)C/C(C)=C/[C@@H](C/C=C/C=O)C(=O)C[C@H](O)[C@@H](C)[C@@H](/C(C)=C/[C@@H]2CC[C@@H](O)[C@H](OC)C2)OC(=O)[C@@H]2CCCCN2C(=O)C(=O)[C@]2(O)O[C@H]1[C@@H](OC)C[C@H]2C | yes (1)
8. CO[C@H]1C[C@@H](C)C/C(C)=C/[C@@H](C/C=C/CO)C(=O)C[C@H](O)[C@@H](C)[C@@H](/C(C)=C/[C@@H]2CC[C@@H](O)[C@H](OC)C2)OC(=O)[C@@H]2CCCCN2C(=O)C(=O)[C@]2(O)O[C@H]1[C@@H](OC)C[C@H]2C | no (0)
